biological target: Fibroblast growth factor 2 (Homo sapiens) (UniProt P09038); assay: FGF2 binders on small-molecule microarrays, primary screen, biochemical, small-molecule microarray, 635/667 nm fluorescence (AID 1133); details: small-molecule microarray binding, FGF2, fluorescence 635/667; higher = more signal
Sequence (P09038 whole entry, looked up): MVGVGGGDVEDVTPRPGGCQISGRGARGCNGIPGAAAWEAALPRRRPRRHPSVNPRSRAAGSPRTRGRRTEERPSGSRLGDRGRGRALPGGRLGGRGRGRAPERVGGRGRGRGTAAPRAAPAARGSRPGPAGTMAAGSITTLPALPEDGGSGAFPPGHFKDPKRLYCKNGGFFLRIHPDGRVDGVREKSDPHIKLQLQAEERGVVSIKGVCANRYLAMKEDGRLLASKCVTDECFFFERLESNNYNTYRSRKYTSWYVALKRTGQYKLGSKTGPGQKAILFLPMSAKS
Lab note: anything with composite z-score at or over 0.01 counts as condition met; the rest go in condition not met.

Task: Would you say `COC(=O)[C@@]1(Cc2ccccc2)[C@H]2c3cc(C(=O)N4CCCC4)n(Cc4ccc(C(F)(F)F)nc4)c3C[C@H]2CN1C(=O)c1ccccc1` shows composite z-score at minimum 0.01?
Result: condition not met

Task: Would you say `C=CCOC(=O)[C@H]1[C@@H]2C(=O)O[C@@H](c3ccccc3)[C@@H](c3ccccc3)N2[C@@H](c2ccc(OCCOC(=O)[C@H]3C[C@H]4C(=O)NCC(=O)N4[C@H]3c3ccc(O)cc3)cc2)[C@]12C(=O)Nc1ccc(I)cc12` shows composite z-score at minimum 0.01?
Result: condition met

Task: Would you say C=CC(CO)NC(=O)OCC1c2ccccc2-c2ccccc21 (stereo not drawn) shows composite z-score at minimum 0.01?
Result: condition met

Task: Would you say CC(C)c1ccc(NN2C(C(O)C(C)C)C=CC3C(=O)N(c4ccccc4)C(=O)C32)cc1 (stereo not drawn) shows composite z-score at minimum 0.01?
Result: condition met

Task: Would you say CCCCCCCCCCC(O)C1C=CC2C(=O)N(C)C(=O)C2N1N1CCCCC1 (stereo not drawn) shows composite z-score at minimum 0.01?
Result: condition not met

Task: Would you say COc1cc(OC)c(C(O)C2C=CC3C(=O)N(c4ccccc4)C(=O)C3N2Nc2ccccc2F)cc1Br (stereo not drawn) shows composite z-score at minimum 0.01?
Result: condition met

***
Task: Would you say `COC(=O)[C@@]1(Cc2ccc(OC)cc2)[C@@H]2[C@@H](CC(=O)[C@H]2CC(=O)C(=O)N2CCCC2)CN1C(=O)c1ccccc1` shows composite z-score at minimum 0.01?
Result: condition not met

Task: Would you say CCCCC(O)C1C=CC2C(=O)NC(=O)C2N1Nc1ccc(Cl)cc1Cl (stereo not drawn) shows composite z-score at minimum 0.01?
Result: condition not met
